IC50 listing for selected compounds.
system_tested: hFASN enzyme (full length) (Homo sapiens)
Construct: 10 μL hFASN enzyme (full length, 300 ng, purified in house); made in house
Sequence (P49327 whole entry): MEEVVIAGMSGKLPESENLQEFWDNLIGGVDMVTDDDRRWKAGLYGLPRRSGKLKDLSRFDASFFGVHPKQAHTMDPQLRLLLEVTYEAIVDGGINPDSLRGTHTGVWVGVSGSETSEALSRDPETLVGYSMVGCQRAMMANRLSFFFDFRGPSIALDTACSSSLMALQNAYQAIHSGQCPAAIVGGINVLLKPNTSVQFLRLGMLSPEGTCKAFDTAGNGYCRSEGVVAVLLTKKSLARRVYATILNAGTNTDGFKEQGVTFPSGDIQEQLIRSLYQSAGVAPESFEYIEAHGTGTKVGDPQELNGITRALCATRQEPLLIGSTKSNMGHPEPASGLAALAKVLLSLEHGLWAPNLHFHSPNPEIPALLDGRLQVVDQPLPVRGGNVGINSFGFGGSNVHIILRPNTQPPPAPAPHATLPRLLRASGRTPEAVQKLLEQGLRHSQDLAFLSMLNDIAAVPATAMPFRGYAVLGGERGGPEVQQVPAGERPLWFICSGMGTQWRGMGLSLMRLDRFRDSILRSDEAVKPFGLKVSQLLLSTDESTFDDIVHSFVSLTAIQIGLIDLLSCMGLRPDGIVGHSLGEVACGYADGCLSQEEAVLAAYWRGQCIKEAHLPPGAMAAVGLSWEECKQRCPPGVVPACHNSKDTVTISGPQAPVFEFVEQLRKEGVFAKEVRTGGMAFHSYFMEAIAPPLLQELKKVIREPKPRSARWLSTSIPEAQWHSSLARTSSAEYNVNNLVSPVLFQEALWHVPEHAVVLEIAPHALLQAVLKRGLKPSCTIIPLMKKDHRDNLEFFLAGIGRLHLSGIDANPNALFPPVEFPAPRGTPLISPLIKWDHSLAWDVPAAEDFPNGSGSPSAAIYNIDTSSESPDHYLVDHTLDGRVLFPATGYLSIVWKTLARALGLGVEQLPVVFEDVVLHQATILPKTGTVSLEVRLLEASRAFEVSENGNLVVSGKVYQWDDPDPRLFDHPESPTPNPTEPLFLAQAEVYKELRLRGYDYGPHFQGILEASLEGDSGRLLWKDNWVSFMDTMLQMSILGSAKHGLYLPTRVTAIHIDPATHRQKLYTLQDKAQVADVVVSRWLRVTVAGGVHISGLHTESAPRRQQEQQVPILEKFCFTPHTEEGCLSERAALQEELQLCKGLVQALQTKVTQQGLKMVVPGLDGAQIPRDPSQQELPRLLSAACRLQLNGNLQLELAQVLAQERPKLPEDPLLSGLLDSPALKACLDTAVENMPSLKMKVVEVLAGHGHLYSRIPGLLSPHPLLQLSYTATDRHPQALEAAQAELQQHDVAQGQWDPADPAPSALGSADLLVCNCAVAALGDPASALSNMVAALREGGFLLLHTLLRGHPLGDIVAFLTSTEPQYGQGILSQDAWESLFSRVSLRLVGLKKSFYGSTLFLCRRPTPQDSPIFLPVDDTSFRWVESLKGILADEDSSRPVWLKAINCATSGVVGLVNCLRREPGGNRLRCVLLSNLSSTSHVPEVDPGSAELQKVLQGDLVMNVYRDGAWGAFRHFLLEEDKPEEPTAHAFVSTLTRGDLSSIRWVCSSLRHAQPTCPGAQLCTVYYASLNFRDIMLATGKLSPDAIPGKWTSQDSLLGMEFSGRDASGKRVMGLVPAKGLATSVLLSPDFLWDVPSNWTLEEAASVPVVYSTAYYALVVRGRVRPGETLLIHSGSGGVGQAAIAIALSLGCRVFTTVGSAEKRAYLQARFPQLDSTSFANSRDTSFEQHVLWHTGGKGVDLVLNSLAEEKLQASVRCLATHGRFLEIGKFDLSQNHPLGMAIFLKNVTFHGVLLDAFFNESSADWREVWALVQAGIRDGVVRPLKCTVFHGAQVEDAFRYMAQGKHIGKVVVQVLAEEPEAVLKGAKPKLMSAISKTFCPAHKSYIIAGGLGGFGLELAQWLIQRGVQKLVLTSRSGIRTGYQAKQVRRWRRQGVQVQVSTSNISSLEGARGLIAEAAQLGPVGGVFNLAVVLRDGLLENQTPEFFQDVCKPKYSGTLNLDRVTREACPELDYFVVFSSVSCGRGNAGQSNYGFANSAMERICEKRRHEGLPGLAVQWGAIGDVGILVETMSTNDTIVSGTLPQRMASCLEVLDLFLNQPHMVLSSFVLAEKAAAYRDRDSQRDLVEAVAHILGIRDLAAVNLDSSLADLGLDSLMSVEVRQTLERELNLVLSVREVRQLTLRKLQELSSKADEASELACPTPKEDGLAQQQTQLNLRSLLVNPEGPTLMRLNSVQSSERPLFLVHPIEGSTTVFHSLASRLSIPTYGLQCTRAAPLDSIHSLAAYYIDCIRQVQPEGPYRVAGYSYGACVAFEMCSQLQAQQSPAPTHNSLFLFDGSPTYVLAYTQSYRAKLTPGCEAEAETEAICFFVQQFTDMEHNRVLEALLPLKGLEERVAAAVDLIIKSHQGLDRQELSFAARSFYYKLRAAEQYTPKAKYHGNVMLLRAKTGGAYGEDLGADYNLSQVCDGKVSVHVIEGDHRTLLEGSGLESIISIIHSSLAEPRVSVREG
measurement_description: Fatty Acid Synthase (FASN) inhibition scintillation proximity assay
Assay type: biochemical
experimental_parameters: read-out: Human FASN pIC50 (converted)

compound | IC50
COC(=O)N1CC(CN2C(=O)C3(CCOC3)N=C2c2ccc(-c3ccc4occc4c3)cc2)C1 (stereo not shown) | > 10000 nM
CS(=O)(=O)Nc1cccc(-c2ccc(C3=NC4(CCCC4)C(=O)N3C[C@@H]3CCN(C(=O)C4CC4)C3)cc2)c1 | 1000 nM
Cn1ncc2cc(-c3ccc(C4=NC5(CCN(C(=O)C(F)(F)F)CC5)C(=O)N4C[C@@H]4CCN(C(=O)C5CC5)C4)cc3)ccc21 | 776 nM
O=C(C1CC1)N1CC[C@@H](CN2C(=O)C3(CC3)N=C2c2ccc(-c3ccc4[nH]ncc4c3)s2)C1 | 3980 nM
Cn1ncc2cc(-c3cnc(C4=NC5(CC5)C(=O)N4C[C@@H]4CCN(C(=O)C5CC5)C4)nc3)ccc21 | 3310 nM
CC(C)n1ccc2cc(-c3ccc(C4=NC5(CC5)C(=O)N4CC4CN(C(=O)C5CC5)C4)c(F)c3)ccc21 | 1050 nM
O=C(C1CC1)N1CC(CN2C(=O)C3(CC3)N=C2c2ccc(-c3ccc4cnc(F)cc4c3)cc2)C1 | 355 nM
O=C(C1CC1)N1CCC(CN2C(=O)C3(CCCC3)N=C2c2ccc(-c3ccc4cnccc4c3)cc2)CC1 | 174 nM
Cn1cc(-c2ccc(-c3ccc(C4=NC5(CC5)C(=O)N4C[C@@H]4CCCN(C(=O)C5CC5)C4)cc3)cc2)cn1 | > 10000 nM
Cc1cc(-c2ccc3c(c2)ncn3C)ccc1C1=NC2(CC2)C(=O)N1CC1CN(C(=O)C2(C)CC2)C1 | 107 nM
Cc1cc(C2=NC3(CC3)C(=O)N2CC2CN(C(=O)C3CC3)C2)ccc1-c1ccc2[nH]ccc2c1 | 263 nM
Cc1cc(-c2ccc3[nH]ccc3c2)ccc1C1=NC2(CC2)C(=O)N1C[C@@H]1CCN(C(=O)C2CC2)C1 | 25.7 nM
Cc1cc(-c2cnc3c(c2)OCCN3C)ccc1C1=NC2(CCCC2)C(=O)N1C[C@@H]1CCN(C(=O)C2CC2)C1 | > 10000 nM
O=C(C1CC1)N1CC(CN2C(=O)C3(CC3)N=C2c2ccc(-c3cc4cn(CCO)nc4cc3F)cc2)C1 | 1350 nM
Cn1cc(-c2ccc(-c3ccc(C4=NC5(CCOCC5)C(=O)N4C[C@@H]4CCN(C(=O)N5CCCC5)C4)cc3)cc2)cn1 | 2240 nM
O=C(C1CC1)N1CC[C@@H](CN2C(=O)C3(CC3)N=C2c2ccc(-c3ccc(Cl)cc3)cc2)C1 | 75.9 nM
O=C(C1CC1)N1CCC[C@@H](CN2C(=O)C3(CC3)N=C2c2ccc(-c3ccc4occc4c3)cc2)C1 | 6310 nM
Cn1cc(-c2ccc(-c3ccc(C4=NC5(CCOC5)C(=O)N4CC4CN(C(=O)N5CCCC5)C4)cc3)cc2)cn1 (stereo not shown) | ~6760 nM
Cc1cc(C2=NC3(CC3)C(=O)N2C[C@@H]2CCN(C(=O)C3CC3)C2)ccc1-c1ccc2occc2c1 | 138 nM
O=C(C1CC1)N1CCC[C@@H](CN2C(=O)C3(CC3)N=C2c2ccc(-c3ccc(O)cc3)cc2)C1 | > 10000 nM
O=C(N1CC(CN2C(=O)C3(CC3)N=C2c2ccc(-c3ccc4cccc(F)c4c3)cc2F)C1)C1(O)CC1 | 25.7 nM
Cn1ncc2cc(-c3ccc(C4=NC5(CCOCC5)C(=O)N4C[C@@H]4CCN(C(=O)C(F)(F)F)C4)cc3)ccc21 | > 10000 nM
Cc1cc(C2=NC3(CC3)C(=O)N2CC2CN(C(=O)C3CC3)C2)ccc1-c1ccc2oc(C)c(C)c2c1 | > 10000 nM
C=CC(=O)N1CCC2(CC1)N=C(c1ccc(-c3ccc4ccoc4c3)cc1)N(C[C@@H]1CCN(C(=O)C3CC3)C1)C2=O | 158 nM
Cn1cc(-c2ccc(-c3ccc(C4=NC5(CCN(S(C)(=O)=O)CC5)C(=O)N4CC4CN(C(=O)C5CC5)C4)cc3)cc2)cn1 | 5010 nM
O=C(C1CC1)N1CC[C@@H](CN2C(=O)C3(CCCC3)N=C2c2ccc(-c3cccc4ncccc34)cc2)C1 | 74.1 nM
O=C(N1CC(CN2C(=O)C3(CCOC3)N=C2c2ccc(-c3ccc4cccnc4c3)cc2)C1)C(F)(F)F (stereo not shown) | > 10000 nM
Nc1cc(-c2ccc(C3=NC4(CC4)C(=O)N3C[C@@H]3CCN(C(=O)C4CC4)C3)cc2)ccn1 | 229 nM

Value source: patent US10077261B2
